procedure-text: NCI Yeast Anticancer Drug Screen. Data for the rad50 strain (AID 155);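 also: 0% = growth of vehicle-only cultures of the same strain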
experimental-context: S. cerevisiae rad50 strain growth inhibition; at 50.0 µM (retest, dose inferred, filed as 5.0)
About 79,000 compounds went through this panel and 15% of them were active in at least one assay; those are over-represented in the sample as a whole. The source made the active and inactive calls. Rule as the data show it: active = growth inhibition above about 70%; inactive = the rest.
Labels: 1 (yes) = active, 0 (no) = inactive

> print(dat)
                                    compound  class.name
 1   CCOC(=O)c1c(Br)c(-c2ccc(Br)cc2)c(Br)n1C      0 (no)
 2  CCOC(=O)c1c(SCC#N)n(-c2ccccc2)c(=S)n(-c2ccccc2)c1=O      0 (no)
 3  C/C(=N\NC(=O)C[n+]1ccccc1)c1sc(-c2nc(C)c(/C(C)=N/NC(=O)C[n+]3ccccc3)s2)nc1C     1 (yes)
 4  COC(=O)C1=C(C)NC(c2ccc(OC)cc2OC)C(C(=O)OC)=C1C (configuration not stated)      0 (no)
 5       C=C(CN(C)C)C(=O)c1ccc(Oc2ccccc2)cc1     1 (yes)
 6  COc1ccc2c(c1)CC1c3c(ccc(OC)c3O)CC2N1C (configuration not stated)      0 (no)
 7         CCOC(=O)/C(=C\c1ccc(Cl)cc1)C(C)=O     1 (yes)
 8  NC(CSSCC(N)=NCCCCCSC12CC3CC(CC(C3)C1)C2)=NCCCCCSC12CC3CC(CC(C3)C1)C2      0 (no)
 9             CCN1C(Cl)=NS(=O)(=O)c2ccccc21      0 (no)
10               COC1=Nc2ccccc2S(=O)(=O)C=C1     1 (yes)
11                 C=CCOc1c(CCC)cc(CN)cc1CCC      0 (no)
12  CN(Cc1ccccc1)C(c1ccccc1)C(O)C(O)(c1ccccc1)c1ccccc1 (configuration not stated)      0 (no)
13           Nc1cccc2c1C(=O)c1ccc(Cl)cc1C2=O     1 (yes)
14  O=[N+]([O-])c1ccc(S(=O)/N=C/c2ccccc2)c([N+](=O)[O-])c1 (configuration not stated)     1 (yes)
15  CC(C)C[C@H](NC(=O)[C@H](Cc1ccccc1)NC(=O)c1cnccn1)B(O)O     1 (yes)
16  O=C(CCl)[O][Bi]([O]C(=O)CCl)([c]1ccccc1)([c]1ccccc1)[c]1ccccc1      0 (no)
17    CN(C)Cc1ccccc1C(=O)C(=O)c1ccccc1CN(C)C      0 (no)
18        Nc1ccc2c(c1)[nH]c(=O)c1ccc(Cl)cc12     1 (yes)
19     O=[N+]([O-])c1c(Cl)cccc1-c1c[nH]cc1Cl     1 (yes)
20                        N#CSCC(=O)c1ccccc1     1 (yes)
21  CC12OC1C(=O)c1ccccc1C2=O (configuration not stated)     1 (yes)
22  C#C[C@]1(OC(C)=O)CC[C@H]2[C@@H]3CCC4=CC(=O)CC[C@@H]4[C@H]3CC[C@@]21C      0 (no)

====

procedure-text: NCI Yeast Anticancer Drug Screen. Data for the rad50 strain (AID 155);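 also: 0% = growth of vehicle-only cultures of the same strain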
experimental-context: S. cerevisiae rad50 strain growth inhibition; at 50.0 µM; active compounds read high
The panel holds about 79,000 compounds, 15% with a hit somewhere; the sample as a whole holds those more often.
Label True for high-side growth inhibition (at or above 60%) and False for low-side growth inhibition (below it).

> print(dat)
                                   compound  class.name
1                  NC(N)=Nc1ccc(N=C(N)N)cc1        True
2  Cc1ccc(S(=O)(=O)N/N=C2/CC[C@H](C(C)(C)C)C[C@@H]2C)cc1        True
3               Cc1cc(O)cc(C)c1[N+](=O)[O-]       False
4  CCC(=O)OC1CCC(C2CCCCC2)CC1 (stereo unspecified)       False
5        Cc1nn(C(=S)S)c(C)c1N=Nc1ccc(Br)cc1        True
